Reported IC50 on PIP4K2B (Homo sapiens) for assorted compounds, compiled from publications.
Quantity measured: IC50

CC1(C)Oc2cc(N3CCCC3=O)ccc2-c2cnc(Nc3cncc(CNCCS(C)(=O)=O)c3)nc21 :: 0.01 to 0.1 µM
O=C1CCCN1c1ccc(-c2ccc(Nc3cncc(N4CCN(Cc5cnco5)C4=O)c3)nc2)cc1 :: 0.01 to 0.1 µM
O=C1c2cc3c(-c4cncc(-c5ccc(N6CCCC6=O)cc5)c4)ccnc3n2CCN1CC1CC1 :: 0.01 to 0.1 µM
O=C1CCCN1c1ccc(-c2cncc(-c3cc(Cl)nc4n[nH]cc34)c2)cc1 :: 0.01 to 0.1 µM
CC1Oc2cc(C(=O)N(C)C)ccc2-c2cnc(Nc3cncc(N4CCCC4=O)c3)cc21 (stereo not drawn) :: 0.01 to 0.1 µM
CN1CCn2c(cc3c(-c4cncc(-c5ccc(-c6nnc7n6CCC7)cc5)c4)ccnc32)C1=O :: 0.1 to 1 µM
O=C1CCCN1c1ccc(-c2ccc(Nc3cncc(N4CCN(Cc5cocn5)C4=O)c3)nc2)cc1 :: 0.01 to 0.1 µM
CN(c1nc(Nc2cnc3c(c2)OCCO3)ncc1-c1ccc(N2CCCC2=O)cc1)[C@H]1C[C@H](O)C1 :: 0.001 to 0.01 µM
CC1Oc2cc(N3CCCC3=O)ccc2-c2cnc(Nc3cnc4c(c3)N(C(=O)C3(O)CC3)CCO4)cc21 (stereo not drawn) :: 0.001 to 0.01 µM
CC(C)OC(=O)c1cc2c(-c3cncc(-c4ccc(N5CCCC5=O)cc4)c3)ccnc2[nH]1 :: 0.01 to 0.1 µM
CC[C@H](C)n1cnnc1-c1ccc(-c2cncc(-c3ccnc4c3cc3n4CCN(C)C3=O)c2)cc1 :: 0.01 to 0.1 µM
CN1CCn2c(cc3c(-c4cncc(-c5ccc(C(=O)N6CCCCC6)cc5)c4)ccnc32)C1=O :: 0.01 to 0.1 µM
O=C1CCCN1c1ccc(-c2cnc(Nc3cnc4c(c3)N3C(=O)CC[C@H]3CO4)cc2C2CC2)cc1F :: 0.01 to 0.1 µM
CC(C)c1conc1-c1ccc(-c2cncc(-c3ccnc4c3cc3n4CCN(C)C3=O)c2)cc1 :: 0.01 to 0.1 µM
CC(=O)N1CCOc2ncc(Nc3ccc(-c4ccc(N5CCCC5=O)cc4)cn3)cc21 :: 0.01 to 0.1 µM

----------
Below are pIC50 measurements against PIP4K2B (Homo sapiens, UniProt P78356) drawn from the literature.
Sequence (P78356 whole entry, species assumed): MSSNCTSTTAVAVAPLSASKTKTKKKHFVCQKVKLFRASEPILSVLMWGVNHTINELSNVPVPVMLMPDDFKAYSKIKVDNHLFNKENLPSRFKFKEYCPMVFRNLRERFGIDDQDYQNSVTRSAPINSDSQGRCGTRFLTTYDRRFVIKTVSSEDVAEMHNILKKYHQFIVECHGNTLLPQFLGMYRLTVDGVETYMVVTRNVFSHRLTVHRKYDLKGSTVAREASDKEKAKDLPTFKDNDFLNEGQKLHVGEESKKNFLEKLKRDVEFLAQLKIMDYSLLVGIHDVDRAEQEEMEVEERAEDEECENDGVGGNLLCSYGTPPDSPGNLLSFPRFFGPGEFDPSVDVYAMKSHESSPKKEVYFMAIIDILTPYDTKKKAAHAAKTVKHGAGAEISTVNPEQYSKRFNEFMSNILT
pIC50: −log10 of the molar value.
Quantity measured: pIC50

CC1Oc2cc(N3CCCC3=O)ccc2-c2cnc(Nc3cncc(NC(=O)C4CCNC4=O)c3)cc21 (stereo not drawn) :: 7.00 to 8.00
COc1nc(Nc2cnc3c(c2)N2C(=O)CC[C@H]2CO3)ncc1-c1ccc(C(=O)N(C)C)cc1 :: 8.00 to 9.00
Nc1ncc(-c2c[nH]c3ncc(Cl)cc23)cc1-c1ccc(N2CCCC2=O)cn1 :: 6.00 to 7.00
CC1Oc2cc(C(=O)N(C)C)ccc2-c2cnc(Nc3cnc4c(c3)N(C(=O)C(C)(C)C)CCO4)cc21 (stereo not drawn) :: 8.00 to 9.00
CN(C)C(=O)c1ccc(-c2ccc(Nc3cncc(N4CCN(Cc5cccc(N)c5)C4=O)c3)nc2)cc1 :: 7.00 to 8.00
CNC(=O)c1cc2c(-c3cnc(N)c(-c4ccc(-c5nncn5CC(C)C)cc4)c3)ccnc2o1 :: 7.00 to 8.00

----------
Here is a set of compounds with reported IC50 for PIP4K2B (Homo sapiens, UniProt P78356), compiled from the literature.
Quantity measured: IC50

Cc1nc(Nc2cnc3c(c2)N2C(=O)CC[C@H]2CO3)ncc1-c1ccc(N2CCCC2=O)cc1 :: 1 to 10 nM
CN1CCn2c(cc3c(-c4cncc(-c5ccc(N6C(=O)Cc7ccccc76)cc5)c4)ccnc32)C1=O :: > 5000 nM
O=C1CCCN1c1ccc(-c2ccc(Nc3cnc4c(c3)N3C(=O)C(O)C[C@H]3CO4)nc2)cc1F (stereo partly shown) :: 10 to 100 nM
CN(CC1CCNCC1)C(=O)c1ccc(-c2cncc(-c3ccncc3)c2)cc1 :: > 5000 nM
Cc1nc2ncc(Nc3ccc(-c4ccc(C(=O)N(C)C)cc4)cn3)cc2o1 :: > 1000 nM
CC1Oc2cc(N3CCCC3=O)ccc2-c2cnc(Nc3cnc4c(c3)N(S(=O)(=O)C3CC3)CCO4)cc21 (stereo not shown) :: 100 to 1000 nM
O=C1CCCN1c1ccc(-c2cncc(-c3c(OC4CCCNC4)cnc4[nH]ccc34)c2)cc1 (stereo not shown) :: > 5000 nM
O=C1CCC(N2C(=O)c3cccc(NCCOCCOCCOCC(=O)Nc4ccc(C(=O)Nc5cncc(Nc6ccc(-c7ccc(N8CCCC8=O)cc7)cn6)c5)cc4)c3C2=O)C(=O)N1 (stereo not shown) :: 10 to 100 nM
CC(C)(O)C(=O)N1CCOc2ncc(Nc3ccc(-c4ccc(N5CCCC5=O)cc4)cn3)cc21 :: 10 to 100 nM
CC1Oc2cc(N3CCCC3=O)ccc2-c2cnc(Nc3cnc4scnc4c3)cc21 (stereo not shown) :: 100 to 1000 nM
CN1C[C@H]2COc3ncc(Nc4ccc(-c5ccc(N6CCCC6=O)cc5)cn4)cc3N2S1(=O)=O :: 10 to 100 nM
CC(=O)OC(C)(C)C(=O)N1CCOc2ncc(Nc3ncc4c(n3)C(C)(C)Oc3cc(-c5nocc5C)ccc3-4)cc21 :: 10 to 100 nM
O=C(NC1CC1c1ccccc1)c1cc2c(-c3cncc(-c4ccc(N5CCCC5=O)cc4)c3)ccnc2[nH]1 (stereo not shown) :: 10 to 100 nM
COc1nc(Nc2cncc(N(C)CC(=O)N3CCNCC3)c2)ncc1-c1ccc(N2CCCC2=O)cc1 :: 10 to 100 nM
Nc1ncc(-c2ccnc3[nH]c(C(=O)NCc4ccccc4)cc23)cc1-c1ccc(C(=O)NCc2ccccc2)cn1 :: 1000 to 2500 nM
O=C1CCCN1c1ccc(-c2cnc(Nc3cnc4c(c3)N3C(=O)CC[C@H]3CO4)nc2C(F)(F)F)cc1 :: 1 to 10 nM
CC(C)n1cnnc1-c1ccc(-c2cncc(-c3ccnc4[nH]c(C(=O)NCCOCCOCCOCCNC(=O)COc5cccc6c5C(=O)N(C5CCC(=O)NC5=O)C6=O)cc34)c2)cc1 (stereo not shown) :: 100 to 1000 nM
O=C(COc1cccc2c1C(=O)N(C1CCC(=O)NC1=O)C2=O)NCCOCCOCCOCCNC(=O)c1cc2c(-c3cncc(-c4ccc(N5CCCC5=O)cc4)c3)ccnc2[nH]1 (stereo not shown) :: 100 to 1000 nM
Cc1cc(N2CCCC2=O)ccc1-c1cncc(-c2ccnc3[nH]c(C(=O)N(C)C)cc23)c1 :: 100 to 1000 nM
COc1ncc(-c2cnc(N)c(-c3ccc(N4CCCC4=O)cc3)c2)c2cn[nH]c12 :: 100 to 1000 nM
CN(C)C(=O)c1ccc(-c2cc(-c3cc(Nc4cc(N)ccn4)ncn3)cnc2N)nc1 :: 2500 to 5000 nM
CN(C)C(=O)c1ccc(-c2cncc(-c3c[nH]c4ncc(Cl)cc34)c2)cc1 :: 100 to 1000 nM

----------
Below are pIC50 values for UniProt P78356 collected from several publications.
pIC50: −log10 of the molar value.
Quantity measured: pIC50

CC(CC(=O)Nc1cncc(Nc2cc3c(cn2)-c2ccc(N4CCCC4=O)cc2OC3C)c1)c1ccccc1 (stereo not drawn) :: 7.00 to 8.00
CN(C)C(=O)c1ccc(-c2cc(-c3ccnc4cccc(C#N)c34)cnc2N)nc1 :: < 5.30
O=C1CCCN1c1ccc(-c2ccc(Nc3cnc4c(c3)N3C(=O)CC[C@H]3CO4)nc2)c(F)c1 :: 7.00 to 8.00
CC1(C#N)CN(c2nc(Nc3cnc4c(c3)N3C(=O)CC[C@H]3CO4)ncc2-c2ccc(N3CCCC3=O)cc2)C1 :: 8.00 to 9.00
O=C(O)c1cc2c(-c3cncc(-c4ccc(N5CCCC5=O)cc4)c3)ccnc2[nH]1 :: 7.00 to 8.00
CC1Oc2cc(N3CCCC3=O)ccc2-c2cnc(Nc3cncc(N4CCOCC4)c3)cc21 (stereo not drawn) :: 6.00 to 7.00
Cc1nc(Nc2cnc3c(c2)N2C(=O)CC[C@H]2CO3)ccc1-c1ccc(N2CCCC2=O)cc1 :: 7.00 to 8.00
O=C1NCCN1c1cncc(Nc2cc3c(cn2)-c2cc(F)c(N4CCCC4=O)cc2OC3)c1 :: 7.00 to 8.00
CN(C)CC(=O)Nc1cncc(Nc2ccc(-c3ccc(C(=O)N(C)C)cc3)cn2)c1 :: 7.00 to 8.00
CN(C)C(=O)c1ccc(-c2cc(-c3ccnc4[nH]c(C(=O)NCCc5ncc[nH]5)cc34)cnc2N)nc1 :: 7.00 to 8.00
CC1Oc2cc(N3CCCC3=O)ccc2-c2cnc(Nc3cnc4c(c3)N3C(=O)CC[C@H]3CO4)cc21 (stereo partly drawn) :: 8.00 to 9.00
COc1nc(Nc2cnc3c(c2)N(C(=O)CN(C)C)CCO3)ncc1-c1ccc(N2CCCC2=O)cc1 :: 7.00 to 8.00
CC1Oc2cc(N3CCCC3=O)ccc2-c2cnc(Nc3cncc(NC(=O)c4cccc5c4COB5O)c3)cc21 (stereo not drawn) :: 7.00 to 8.00
CC1Oc2cc(N3CCCC3=O)ccc2-c2cnc(Nc3cnc4c(c3)N3C(=O)C(O)C[C@H]3CO4)cc21 (stereo partly drawn) :: 8.00 to 9.00
Cc1cc(N2CCCC2=O)ccc1-c1cnc(Nc2cnc3c(c2)N2C(=O)C4(CC4)C[C@H]2CO3)nc1 :: 8.00 to 9.00
CN(C)C/C=C/C(=O)Nc1cccc(CCC(=O)Nc2cncc(Nc3ccc(-c4ccc(C(=O)N(C)C)cc4)cn3)c2)c1 :: 7.00 to 8.00
CC(C)Cn1cnnc1-c1ccc(-c2cncc(-c3ccnc4[nH]c(C(=O)NCCc5ccncc5)cc34)c2)cc1 :: 7.00 to 8.00
O=C1CCCN1c1ccc(-c2cncc(-c3ccnc4[nH]ccc34)c2)cc1 :: 6.00 to 7.00
CC(O)c1cnc2c(c1)c(-c1cncc(-c3ccc(N4CCCC4=O)cc3)c1)cn2C (stereo not drawn) :: 5.60 to 6.00
COC(=O)N1CCOc2ncc(Nc3cc4c(cn3)-c3ccc(N5CCCC5=O)cc3OC4)cc21 :: 8.00 to 9.00
CN(C)C(=O)c1ccc(-c2cnc(Nc3cnc4c(c3)OCCO4)nc2N(C)[C@H]2C[C@@H](O)C2)cc1 :: 6.00 to 7.00
CC1Oc2cc(N3CCCC3=O)ccc2-c2cnc(Nc3cncc(NC(=O)c4ccc(NC(=O)/C=C/CN(C)C)cc4)c3)cc21 (stereo not drawn) :: 7.00 to 8.00
CN(C)C(=O)c1ccc(-c2cc(-c3ccnc4[nH]c(C(=O)NCc5ccncc5)cc34)cnc2N)nc1 :: 7.00 to 8.00
O=C(Nc1ccc(-c2cncc(-c3ccnc4[nH]ncc34)c2)cc1)C(=O)N1C2CCC1CC2 :: < 5.30
